Cited source: ChEMBL document CHEMBL1629665

tested on: Staphylococcus aureus; assay: Antibacterial activity against vancomycin-susceptible Staphylococcus aureus Mu50omega after 24 hrs by Etest; assay type: functional
Where a SMILES comes first, the peptide text is derived from it. Bridges are numbered along the chain shown (N, C = ends). [ ]: non-standard residue; d: D form. The star is where a group is joined. Ileψ(thiazoline)Cys = CC[C@H](C)[C@H](N)C1=N[C@H](C(=O)*)CS1; dOrn = NCCC[C@@H](N)C(=O)O
observed property: MIC

CN(C)c1ccc(O)c2c1C[C@H]1C[C@H]3[C@H](N(C)C)C(O)=C(C(N)=O)C(=O)[C@@]3(O)C(O)=C1C2=O [MINOCYCLINE] | 10 µg/mL
CO/N=C(\C(=O)N[C@@H]1C(=O)N2C(C(=O)O)=CCS[C@H]12)c1csc(N)n1 [CEFTIZOXIME] | 0.38 µg/mL
CC[C@H]1OC(=O)[C@H](C)[C@@H](O[C@H]2C[C@@](C)(OC)[C@@H](O)[C@H](C)O2)[C@H](C)[C@@H](O[C@@H]2O[C@H](C)C[C@H](N(C)C)[C@H]2O)[C@](C)(O)C[C@@H](C)CN(C)[C@H](C)[C@@H](O)[C@]1(C)O [AZITHROMYCIN] | > 256 µg/mL

Incoming: // lookup MIC for CC[C@H](C)[C@H](N)C1=N[C@H](C(=O)N[C@@H](CC(C)C)C(=O)N[C@H](CCC(=O)O)C(=O)N[C@H](C(=O)N[C@H]2CCCCNC(=O)[C@H](CC(N)=O)NC(=O)[C@@H](CC(=O)O)NC(=O)[C@H](Cc3cnc[nH]3)NC(=O)[C@@H](Cc3ccccc3)NC(=O)[C@H]([C@@H](C)CC)NC(=O)[C@@H](CCCN)NC2=O)[C@@H](C)CC)CS1 [BACITRACIN] ({Ileψ(thiazoline)Cys}-L[dE]IK[dOrn]I[dF]H[dD]N; lactam 4-C)
Outgoing: 12 µg/mL

###

Items are presented alongside their recorded MIC.
test system: Staphylococcus aureus; assay: Antibacterial activity against vancomycin-susceptible Staphylococcus aureus Mu50omega after 48 hrs by Etest; type: functional
Where a SMILES comes first, the peptide text is derived from it. Bridges are numbered along the chain shown (N, C = ends). [ ]: non-standard residue; d: D form. The star is where a group is joined. Ileψ(thiazoline)Cys = CC[C@H](C)[C@H](N)C1=N[C@H](C(=O)*)CS1; dOrn = NCCC[C@@H](N)C(=O)O
Write the answer as a number in µg/mL, unit excluded.

Known MIC results, listed for orientation:
CC[C@H](C)[C@H](N)C1=N[C@H](C(=O)N[C@@H](CC(C)C)C(=O)N[C@H](CCC(=O)O)C(=O)N[C@H](C(=O)N[C@H]2CCCCNC(=O)[C@H](CC(N)=O)NC(=O)[C@@H](CC(=O)O)NC(=O)[C@H](Cc3cnc[nH]3)NC(=O)[C@@H](Cc3ccccc3)NC(=O)[C@H]([C@@H](C)CC)NC(=O)[C@@H](CCCN)NC2=O)[C@@H](C)CC)CS1 [BACITRACIN] ({Ileψ(thiazoline)Cys}-L[dE]IK[dOrn]I[dF]H[dD]N; lactam 4-C) | 24
CO/N=C(\C(=O)N[C@@H]1C(=O)N2C(C(=O)O)=CCS[C@H]12)c1csc(N)n1 [CEFTIZOXIME] | 0.5
CO[C@@]1(NC(=O)Cc2cccs2)C(=O)N2C(C(=O)O)=C(COC(N)=O)CS[C@@H]21 [CEFOXITIN] | 32
CN(C)c1ccc(O)c2c1C[C@H]1C[C@H]3[C@H](N(C)C)C(O)=C(C(N)=O)C(=O)[C@@]3(O)C(O)=C1C2=O [MINOCYCLINE] | 24
CC(=O)OCC1=C(C(=O)O)N2C(=O)[C@@H](NC(=O)Cc3cccs3)[C@H]2SC1 [CEPHALOTHIN] | 0.38

We now examine a further compound.
Incoming: What measured MIC goes with CCCCCCCCCC(=O)N[C@@H](Cc1c[nH]c2ccccc12)C(=O)N[C@H](CC(N)=O)C(=O)N[C@@H](CC(=O)O)C(=O)N[C@@H]1C(=O)NCC(=O)N[C@@H](CCCN)C(=O)N[C@@H](CC(=O)O)C(=O)N[C@H](C)C(=O)N[C@@H](CC(=O)O)C(=O)NCC(=O)N[C@H](CO)C(=O)N[C@@H]([C@H](C)CC(=O)O)C(=O)N[C@@H](CC(=O)c2ccccc2N)C(=O)O[C@@H]1C ?
Outgoing: 1

###

system: Staphylococcus aureus; experiment: Antibacterial activity against vancomycin-susceptible Staphylococcus aureus Mu50omega expressing vraSm mutant gene after 48 hrs by Etest; assay type: functional
Where a SMILES comes first, the peptide text is derived from it. Bridges are numbered along the chain shown (N, C = ends). [ ]: non-standard residue; d: D form. The star is where a group is joined. Ileψ(thiazoline)Cys = CC[C@H](C)[C@H](N)C1=N[C@H](C(=O)*)CS1; dOrn = NCCC[C@@H](N)C(=O)O
MIC strictly less than 5 µg/mL = condition met. Otherwise condition not met.

Examples with answers:
C[C@@H](O)[C@H]1C(=O)N2C(C(=O)O)=C(SCCNC=N)C[C@H]12 [IMIPENEM ANHYDROUS] | condition not met
CC[C@H](C)[C@H](N)C1=N[C@H](C(=O)N[C@@H](CC(C)C)C(=O)N[C@H](CCC(=O)O)C(=O)N[C@H](C(=O)N[C@H]2CCCCNC(=O)[C@H](CC(N)=O)NC(=O)[C@@H](CC(=O)O)NC(=O)[C@H](Cc3cnc[nH]3)NC(=O)[C@@H](Cc3ccccc3)NC(=O)[C@H]([C@@H](C)CC)NC(=O)[C@@H](CCCN)NC2=O)[C@@H](C)CC)CS1 [BACITRACIN] ({Ileψ(thiazoline)Cys}-L[dE]IK[dOrn]I[dF]H[dD]N; lactam 4-C) | condition not met
CN(C)[C@@H]1C(O)=C(C(N)=O)C(=O)[C@@]2(O)C(O)=C3C(=O)c4c(O)cccc4[C@@](C)(O)[C@H]3C[C@@H]12 [TETRACYCLINE] | condition not met
CCCCCCCCCC(=O)N[C@@H](Cc1c[nH]c2ccccc12)C(=O)N[C@H](CC(N)=O)C(=O)N[C@@H](CC(=O)O)C(=O)N[C@@H]1C(=O)NCC(=O)N[C@@H](CCCN)C(=O)N[C@@H](CC(=O)O)C(=O)N[C@H](C)C(=O)N[C@@H](CC(=O)O)C(=O)NCC(=O)N[C@H](CO)C(=O)N[C@@H]([C@H](C)CC(=O)O)C(=O)N[C@@H](CC(=O)c2ccccc2N)C(=O)O[C@@H]1C | condition met
CC(=O)NC[C@H]1CN(c2ccc(N3CCOCC3)c(F)c2)C(=O)O1 [LINEZOLID] | condition met

Incoming: Determine if Cc1onc(-c2ccccc2)c1C(=O)N[C@@H]1C(=O)N2[C@@H]1SC(C)(C)[C@@H]2C(=O)O [OXACILLIN] shows MIC strictly lower than 5 µg/mL.
Outgoing: condition not met

Incoming: Given CC(=O)OCC1=C(C(=O)O)N2C(=O)[C@@H](NC(=O)Cc3cccs3)[C@H]2SC1 [CEPHALOTHIN] , is recorded MIC strictly lower than 5 µg/mL?
Outgoing: condition not met

Incoming: Lab note: confirm whether the reported MIC for this compound is below 5 µg/mL, equality not counting. compound: CO[C@@]1(NC(=O)Cc2cccs2)C(=O)N2C(C(=O)O)=C(COC(N)=O)CS[C@@H]21 [CEFOXITIN]
Outgoing: condition not met

Incoming: Identify whether the compound CO/N=C(\C(=O)N[C@@H]1C(=O)N2C(C(=O)O)=CCS[C@H]12)c1csc(N)n1 [CEFTIZOXIME] records MIC below 5 µg/mL.
Outgoing: condition not met

Incoming: # TODO verify MIC < 5 µg/mL strictly for this compound: CN(C)c1ccc(O)c2c1C[C@H]1C[C@H]3[C@H](N(C)C)C(O)=C(C(N)=O)C(=O)[C@@]3(O)C(O)=C1C2=O [MINOCYCLINE]
Outgoing: condition not met

Incoming: Report whether reported MIC is lower than 5 µg/mL (strictly) for CC1(C)S[C@@H]2[C@H](NC(=O)[C@H](N)c3ccccc3)C(=O)N2[C@H]1C(=O)O [AMPICILLIN]
Outgoing: condition not met

###

system: Staphylococcus aureus; test: Antibacterial activity against vancomycin-susceptible Staphylococcus aureus Mu50omega expressing vraSn mutant gene after 48 hrs by Etest; format: functional
Listed molecules paired with reported MIC
Give the quantity in µg/mL, number only.

CN(C)c1ccc(O)c2c1C[C@H]1C[C@H]3[C@H](N(C)C)C(O)=C(C(N)=O)C(=O)[C@@]3(O)C(O)=C1C2=O | 24
CC(=O)NC[C@H]1CN(c2ccc(N3CCOCC3)c(F)c2)C(=O)O1 | 0.5

// next item, MIC requested
Incoming: Returns the measured MIC for the input molecule. Input: CC1(C)S[C@@H]2[C@H](NC(=O)[C@H](N)c3ccccc3)C(=O)N2[C@H]1C(=O)O
Outgoing: 12
